Molecular target: His-hMAGL (recombinant polyhistidine tagged human MAGL protein) (Homo sapiens)
Construct: made in house; host or cells: E. coli BL21(DE3)
Sequence (Q99685 1-303): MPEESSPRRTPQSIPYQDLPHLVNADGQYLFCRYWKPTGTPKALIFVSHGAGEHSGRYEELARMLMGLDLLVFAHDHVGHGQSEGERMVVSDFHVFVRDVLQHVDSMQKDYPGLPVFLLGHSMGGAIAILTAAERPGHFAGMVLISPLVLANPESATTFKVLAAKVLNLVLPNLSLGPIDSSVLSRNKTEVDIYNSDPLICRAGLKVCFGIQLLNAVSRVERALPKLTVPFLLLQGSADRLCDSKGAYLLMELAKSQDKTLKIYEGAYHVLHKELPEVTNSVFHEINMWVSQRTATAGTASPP
Assay: Measurement of MAGL inhibitory activity (arachidonic acid production from 2-arachidonylglycerol, RapidFire-mass spectrometry)
Type: biochemical
Conditions: MAGL inhibitory rate, test compound 10 μM, 60 min preincubation, 2-arachidonylglycerol substrate
recorded metric: inhibition at 10 µM (%)
# number only, unit % dropped from output

Query the reported inhibition at 10 µM for His-hMAGL (recombinant polyhistidine tagged human MAGL protein) (Homo sapiens); item: O=C1CCC2(CN(C(=O)c3cc4ccc(C(F)(F)F)cc4s3)C2)N1
94

Query the reported inhibition at 10 µM for His-hMAGL (recombinant polyhistidine tagged human MAGL protein) (Homo sapiens); item: O=C1CCC2(CN(C(=O)c3ccc(-c4ccc(C(F)(F)F)cc4F)cc3)C2)N1
96

Query the reported inhibition at 10 µM for His-hMAGL (recombinant polyhistidine tagged human MAGL protein) (Homo sapiens); item: CC(C)(C)c1ccc(-c2ccc(C(=O)N3CC4(CCC(=O)N4)C3)cc2)cc1
99
